Test system: OVCAR-8 ovarian
Test: NCI-60 one-dose screen, 48 h (100 = growth as untreated, 0 = no growth, -100 = all killed)
Details: 10 µM unless noted
This is part of a sample that, as a whole, favours compounds with a hit. Of some 83,000 tested, about 20% had one in any assay.
reported-metric: growth (%)
Numbers only, in %.

# per-item lookup of growth; items listed below
1. c1ccc(CNc2nc(Nc3ccccc3)nc3ccccc23)cc1
2. O=c1c(-c2nc3ccccc3[nH]2)cc2ccccc2n1Cc1cn(Cc2ccc(F)cc2)nn1
3. C#CCn1cc(C=C2C(=O)NC(=O)NC2=O)c2cc(Cl)ccc21
4. CCCCC1COc2cccc3c2N1C=C/C3=C\C(=O)N(C)c1ccccc1 (centres undefined)
5. CCN1C(=O)N(c2ccccc2)C2NN=c3s/c(=C4\C(=O)N(C(C)C)c5ccccc54)c(=O)n3C21 (centres undefined)
6. O=c1cc(NC2CCN(CCCc3ccccc3)CC2)c2cc(Cl)ccc2o1

Result:
1. 34.9
2. 28.5
3. 87.5
4. 52.9
5. 31.6
6. -0.533

###

System: HCT-15 colon
Assay: NCI-60 one-dose screen, 48 h (100 = growth as untreated, 0 = no growth, -100 = all killed)
Details: 10 µM unless noted
The panel holds about 83,000 compounds, 20% with a hit somewhere; the sample as a whole holds those more often.
Assign 1.0 whenever growth does not fall below 50%; assign 0.0 whenever it does.

Here's what some known entries look like.
>>> df
                                   molecule  system_under_test  class_label
0              COc1ccccc1C(=O)/C=C/c1ccccc1       HCT-15 colon          1.0
1  COC(=O)/C(CCC=C(C)C)=C1\[C@@H](OC(C)=O)C[C@@]2(C)[C@H]1C[C@@H](O)[C@H]1[C@@]3(C)CC[C@H](NCCO)[C@@H](C)[C@@H]3CC[C@@]12C       HCT-15 colon          1.0

Ask: Please check the record CCOC(=O)c1sc(-c2ccc(OS(=O)(=O)c3cccs3)c(C=O)c2)nc1C and state if its growth is at or above 50%.
Result: 0.0

Ask: Please check the record COc1ccc(/C=C/C(=O)c2ccc3cc(OC)c(OC)cc3c2)cc1OC and state if its growth is at or above 50%.
Result: 0.0

Ask: Please check the record O=C(CCN1C(=O)c2ccccc2C1=O)Nc1ccc(Cl)cc1 and state if its growth is at or above 50%.
Result: 1.0

Ask: Please check the record COc1ccc(C2C3=C(COC3=O)N(CCO)c3cc4c(cc32)CCC4)cc1OC (centres undefined) and state if its growth is at or above 50%.
Result: 0.0

###

Test system: U251 CNS
Experiment: NCI-60 one-dose screen, 48 h
Conditions: 10 µM unless noted
Compounds without any hit were thinned out: in the full panel of roughly 83,000, 20% have a hit. The source made the active and inactive calls. The calls were made as follows: active = growth percent below 10; inactive = the rest.
API: response.call in YES for active, NO for inactive

>>> print(df.to_string())
                                   molecule  class_label
0  CCOC(=O)c1sc(-c2ccc(OS(=O)(=O)C[C@]34CCC(CC3=O)C4(C)C)c(C=O)c2)nc1C          YES
1  O=C(N/N=C/c1ccccc1Cl)C(=O)Nc1cccc(C(F)(F)F)c1           NO
2  Cc1nn(-c2nc3ccccc3[nH]2)c2c1C(c1ccc(OCC(N)=O)cc1)CC(=O)N2 (configuration not stated)           NO
3        Cc1sc2ncnc(Sc3nc4ccccc4[nH]3)c2c1C          YES
4  CC(=O)SC1CC(=O)C=C2CCC3C4CCC(=O)OC4(C)CCC3C21C (configuration not stated)           NO

Ask: Hello, I am checking results. What call was entered for NCCOc1ncccc1/C=C1\c2ccccc2-c2ccc([N+](=O)[O-])cc21 ?
Result: YES

Ask: Hello, I am checking results. What call was entered for CCN1C(=O)N(CC)C2Nn3c(s/c(=C\c4ccccc4F)c3=O)=NC21 (configuration not stated) ?
Result: NO

Ask: Hello, I am checking results. What call was entered for O=C(Nc1ccc(Br)cc1F)c1cc(Cl)ccc1O ?
Result: YES

Ask: Hello, I am checking results. What call was entered for Cc1nc(Nc2cn[nH]c2C(=O)Nc2ccc(CN3CCN(C)CC3)cc2)c2ccsc2n1 ?
Result: NO

Ask: Hello, I am checking results. What call was entered for COc1cc2nc(-c3cnc(N(C)C)nc3)nc(NC3CCN(Cc4ccccc4)CC3)c2cc1OC ?
Result: YES

###

Tested on: K-562 leukemia
Experiment: NCI-60 one-dose screen, 48 h
Conditions: 10 µM unless noted
Compounds without any hit were thinned out: in the full panel of roughly 83,000, 20% have a hit. The source made the active and inactive calls. Rule for the calls: active = growth percent below 10; inactive = the rest.
API: response.call in active, inactive

                                   molecule  system_under_test  class_label
0  CCCCN1CCN(c2ccc3nc(-c4ccc5nc(-c6ccc(C(F)(F)F)cc6)[nH]c5c4)[nH]c3c2)CC1     K-562 leukemia       active
1         Nc1nc(-c2cnccn2)nn1-c1nc2ccccc2s1     K-562 leukemia     inactive
2  C1=CC2(C=C1)OC21CCC2(C=CC3(C2)OC3C2CCCCC2)CC1 (stereo unspecified)     K-562 leukemia     inactive
3      CN(C)c1ccc(N=Cc2ccc(N3CCOCC3)cc2)cc1     K-562 leukemia     inactive
4   COc1ccc(OC)c(NC(=O)/C(C#N)=C/c2ccco2)c1     K-562 leukemia     inactive

Consider the record given below.
Ask: Hello, I am checking results. What call was entered for O=c1oc2ccc(F)cc2c(=O)n1-c1ccc(F)cc1F ?
Result: inactive

###

System: SK-MEL-28 melanoma
Assay: NCI-60 one-dose screen, 48 h (100 = growth as untreated, 0 = no growth, -100 = all killed)
Conditions: 10 µM
Compounds without any hit were thinned out: in the full panel of roughly 83,000, 20% have a hit. Active and inactive are the calls of the source. Rule for the calls: active = growth percent below 10; inactive = the rest.
reported-metric: growth

Study these solved cases before continuing.
>>> df
                                   compound   system_under_test  reported_metric              val
0  NCCOc1ncccc1/C=C1\c2ccccc2-c2ccc([N+](=O)[O-])cc21  SK-MEL-28 melanoma           growth    -22% (active)
1  COc1cc2cc3c(=O)n4c(cc5cc(OC)ncc54)c(=O)n3c2cn1  SK-MEL-28 melanoma           growth  106% (inactive)

# per-item lookup of growth; items listed below
1. COc1cccc(C(=O)NC(c2ccc(C)cc2)c2cc(Cl)c3cccnc3c2O)c1 (stereo unspecified)
2. FC(F)(F)c1cccc(Nc2nc(-c3ccccc3)nc3ncccc23)c1
3. Cc1nc2ccccc2c(/C=C/c2ccc(F)cc2)c1C(N)=O
4. CCOC(=O)C1=C(C)N=c2s/c(=C\c3cc(Cl)ccc3O)c(=O)n2C1c1ccc(OC)cc1 (stereo unspecified)
5. O=C(CCc1nnc2sc(-c3ccc(Cl)cc3Cl)nn12)c1nc2ncccc2[nH]1
6. Cc1ccc2[nH]c(=O)cc(-n3nncc3Cn3c4ccccc4c4ccccc43)c2c1

Result:
1: 44% (inactive); 2: -84.6% (active); 3: 117% (inactive); 4: 106% (inactive); 5: -9.94% (active); 6: 108% (inactive)

# per-item lookup of growth; items listed below
1. COc1ccc(C2Nc3nc(OC)n(C)c(=O)c3N=C3c4ccccc4C(=O)C32)cc1 (stereo unspecified)
2. O=C(CSc1ncccc1C(=O)O)Nc1ccc(Oc2ccccc2)cc1
3. N#C/C(=C1\SC(=O)CN1c1ccccc1)c1nc2ccccc2s1
4. O=c1oc2ccc(Cl)cc2c(=O)n1-c1ccc(F)cc1F
5. O=c1c2cc(F)ccc2sc2c(NCCN3CCCC3)nc3ccccc3c12
6. O=C(N/N=C/c1ccccc1O)C(=O)Nc1ccc(F)cc1
7. COc1ccc(Br)c(/C=C2\SC(=Nc3ccc(O)cc3)NC2=O)c1

Result:
1. 106% (inactive)
2. 105% (inactive)
3. 106% (inactive)
4. 21.8% (inactive)
5. 71.6% (inactive)
6. 59.4% (inactive)
7. 101% (inactive)

Query Cc1ccc(C)c(-c2csc(Nc3ccc(C)c(C)c3)n2)c1 on SK-MEL-28 melanoma; growth returned: -93.3% (active)

###

Test system: ACHN renal
Test: NCI-60 one-dose screen, 48 h (100 = growth as untreated, 0 = no growth, -100 = all killed)
Conditions: 10 µM unless noted
This is part of a sample that, as a whole, favours compounds with a hit. Of some 83,000 tested, about 20% had one in any assay.
reported-metric: growth (%)
Answers are plain numbers, in %.

Study these solved cases before continuing.
compound	system-under-test	growth, %
CC(=O)c1ccc(NC(=O)Nc2ccc(S(=O)(=O)Nc3ccc(Cl)nn3)cc2)cc1	ACHN renal	103
CN1C(=O)N(C)C2(c3ccccc3)n3c(s/c(=C\c4ccccc4)c3=O)=NNC12c1ccccc1 (configuration not stated)	ACHN renal	95
COc1ccc(/C=c2\sc3n(c2=O)NC2C(N=3)N(C)C(=O)N2C)cc1 (configuration not stated)	ACHN renal	105
O=S(=O)(c1ccc(NC(=S)NC23CC4CC(CC(C4)C2)C3)cc1)N1CCCCC1	ACHN renal	93.6

# per-item lookup of growth; items listed below
1. COc1c(B(O)O)cccc1-c1nc2ccc3[nH]ncc3c2c2c1C1CCC2C1 (configuration not stated)
2. COC(=O)C1(C)CCC[C@]2(C)[C@H]3C[C@H]4C(C(C)C)=C[C@]3(CC[C@@H]12)[C@H]1[C@@H]4[C@@H](OCC#CCN2CCOCC2)CC[C@@H]1OCC#CCN1CCOCC1 (some centres not stated)
3. Cc1ccc(S(=O)(=O)c2c(COC(=O)c3cccc(C)c3)c(-c3ccccc3)nn2C)cc1
4. O=C(c1nc2ccccc2[nH]1)C1C(c2ccc(F)cc2)C2CC3CCCCC3N2[C@@]12C(=O)Nc1ccc(Cl)cc12 (some centres not stated)
5. COc1cc2c(cc1OC)C(=O)C(CC1CCN(C(=O)Nc3ccc(C)cc3)CC1)C2 (configuration not stated)

Result:
[63.2, 92.3, 91, 43.1, 93.6]

# per-item lookup of growth; items listed below
1. N#Cc1c(N)nc2c(c1N)C(c1ccc(F)cc1)c1ccc(N)cc1O2 (configuration not stated)
2. Cn1nc(C(F)(F)F)c(-c2ccc(Cl)c(C(F)(F)F)c2)c1-c1ccc(OCc2ccc(Cl)cc2)cc1O
3. CCC1=C[C@]2(C3CC(=O)N(c4ccccc4)C3=O)CC(C(C)(C)C)C[C@@H]2[C@@H]2C(=O)N(c3ccccc3)C(=O)[C@H]12 (some centres not stated)
4. COc1cc(C2C3=C(COC3=O)N(CCO)c3cc4c(cc32)CCC4)cc(OC)c1O (configuration not stated)
5. CCOC(=O)c1sc(-c2ccc(OS(=O)(=O)c3cccs3)c(C=O)c2)nc1C

Result:
[102, 5.21, 90.5, 42.8, 0.377]

Numbers sourced from PubChem BioAssay (NCI).
